# assayed-system: recombinant full-length human alpha synuclein monomer (human, UniProt P37840 1-140)
# experiment-summary: SPR, Biacore T200, as in Example 3; Fab injected;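 further: ligands amine-coupled on CM5 chip flow cells, HBS-EP+ running buffer, kinetic data fitted with 1:1 model allowing local bulk contribution and global Rmax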
// reported kon per item
// units = M⁻¹ s⁻¹; emit number, no label

- binder: "6470 rabbit Fab with heavy chain mutation N99Q (Fab, V domains shown) VH: QSVEESGGRLVTPGTPLTLTCTVSGIDLSSHDMYWVRQAPGKGLEYIGAIYASGSTYYASWAKGRFTISKTSTTVDLKMTSLTTEDTATYFCARIHYGQSGGLWGQGTLVTVSS VL: AIVMTQTPSSKSVAVGDTVTINCQASQSVYKNNYLAWFQQKPGQPPKQLIYGASTLASGVPSRFKGSGSGTQFTLTISDVVCDDAATYYCAGYKGGRNDGFAFGGGTEVVVKR"
  measurement-kind: "kon"
  meas-value: 375000
- binder: "6470 rabbit Fab with heavy chain mutation N99W (Fab, V domains shown) VH: QSVEESGGRLVTPGTPLTLTCTVSGIDLSSHDMYWVRQAPGKGLEYIGAIYASGSTYYASWAKGRFTISKTSTTVDLKMTSLTTEDTATYFCARIHYGWSGGLWGQGTLVTVSS VL: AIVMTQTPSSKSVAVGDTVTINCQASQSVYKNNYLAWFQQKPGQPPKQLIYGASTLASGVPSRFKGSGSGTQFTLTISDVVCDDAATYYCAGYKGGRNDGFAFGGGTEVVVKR"
  measurement-kind: "kon"
  meas-value: "9.22e+06"
- binder: "6470 rabbit Fab with heavy chain mutation H31K (Fab, V domains shown) VH: QSVEESGGRLVTPGTPLTLTCTVSGIDLSSKDMYWVRQAPGKGLEYIGAIYASGSTYYASWAKGRFTISKTSTTVDLKMTSLTTEDTATYFCARIHYGNSGGLWGQGTLVTVSS VL: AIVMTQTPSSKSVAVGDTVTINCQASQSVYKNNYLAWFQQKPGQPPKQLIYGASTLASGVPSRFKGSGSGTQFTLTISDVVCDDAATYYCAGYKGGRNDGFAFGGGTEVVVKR"
  measurement-kind: "kon"
  meas-value: "6.17e+06"
- binder: "6470 rabbit Fab with heavy chain mutation S55N (Fab, V domains shown) VH: QSVEESGGRLVTPGTPLTLTCTVSGIDLSSHDMYWVRQAPGKGLEYIGAIYASGNTYYASWAKGRFTISKTSTTVDLKMTSLTTEDTATYFCARIHYGNSGGLWGQGTLVTVSS VL: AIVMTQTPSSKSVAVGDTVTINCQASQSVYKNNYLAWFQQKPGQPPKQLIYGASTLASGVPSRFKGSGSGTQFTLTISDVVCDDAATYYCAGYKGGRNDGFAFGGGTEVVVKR"
  measurement-kind: "kon"
  meas-value: "1.39e+07"

Next binder, please.
Recorded kon of 6470 rabbit Fab with light chain mutation Y30W (Fab, V domains shown) VH: QSVEESGGRLVTPGTPLTLTCTVSGIDLSSHDMYWVRQAPGKGLEYIGAIYASGSTYYASWAKGRFTISKTSTTVDLKMTSLTTEDTATYFCARIHYGNSGGLWGQGTLVTVSS VL: AIVMTQTPSSKSVAVGDTVTINCQASQSVWKNNYLAWFQQKPGQPPKQLIYGASTLASGVPSRFKGSGSGTQFTLTISDVVCDDAATYYCAGYKGGRNDGFAFGGGTEVVVKR , please.
2.99e+06
